# Assayed System: human ether-à-go-go-related gene (hERG) potassium channel (human);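 further: peak tail current of the secondary pulse compared with the same well before compound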
# Sequence (Q12809 whole entry, looked up): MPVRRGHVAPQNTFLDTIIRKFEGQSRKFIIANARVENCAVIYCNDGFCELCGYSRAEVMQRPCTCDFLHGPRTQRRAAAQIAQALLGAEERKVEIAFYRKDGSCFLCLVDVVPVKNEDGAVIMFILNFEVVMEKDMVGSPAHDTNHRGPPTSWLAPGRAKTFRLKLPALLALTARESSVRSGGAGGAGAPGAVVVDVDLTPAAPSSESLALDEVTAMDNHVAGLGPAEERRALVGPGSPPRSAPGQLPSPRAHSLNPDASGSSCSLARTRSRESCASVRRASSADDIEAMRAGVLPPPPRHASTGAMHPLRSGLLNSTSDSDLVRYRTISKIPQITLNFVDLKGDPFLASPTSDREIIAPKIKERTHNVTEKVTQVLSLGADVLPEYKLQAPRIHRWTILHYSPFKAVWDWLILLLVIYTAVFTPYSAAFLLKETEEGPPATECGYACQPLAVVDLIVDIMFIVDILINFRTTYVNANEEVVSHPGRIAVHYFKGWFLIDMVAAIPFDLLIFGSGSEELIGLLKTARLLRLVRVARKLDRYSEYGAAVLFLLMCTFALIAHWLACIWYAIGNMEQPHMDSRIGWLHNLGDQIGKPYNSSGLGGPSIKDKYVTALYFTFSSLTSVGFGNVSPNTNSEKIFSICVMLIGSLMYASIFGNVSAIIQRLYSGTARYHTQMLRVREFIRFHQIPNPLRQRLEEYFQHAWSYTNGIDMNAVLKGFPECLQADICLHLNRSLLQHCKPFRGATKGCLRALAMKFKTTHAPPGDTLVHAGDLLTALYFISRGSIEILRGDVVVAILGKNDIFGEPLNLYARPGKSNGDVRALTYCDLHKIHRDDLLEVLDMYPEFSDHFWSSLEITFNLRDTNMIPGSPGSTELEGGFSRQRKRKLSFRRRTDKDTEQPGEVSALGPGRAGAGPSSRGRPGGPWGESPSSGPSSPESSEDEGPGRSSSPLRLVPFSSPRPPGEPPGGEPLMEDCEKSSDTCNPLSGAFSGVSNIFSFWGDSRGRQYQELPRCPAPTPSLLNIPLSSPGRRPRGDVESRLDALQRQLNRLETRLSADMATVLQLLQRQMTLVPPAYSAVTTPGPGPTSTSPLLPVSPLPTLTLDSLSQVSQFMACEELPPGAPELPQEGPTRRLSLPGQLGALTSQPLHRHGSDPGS
# Assay Name: primary screen, population patch clamp on CHO cells stably expressing hERG; higher = less effect of the substance
Out of some 310,000 compounds screened, about 14,000 (4.5%) showed an effect of 50% or more. Effects have a minus sign here. The list comes from a sample in which strong results are over-represented; it also holds close analogues and randomly drawn compounds.
Quantity: hERG current change (%, negative = inhibition) at 10uM (%)
One number for each entry, in %.

Structure Smiles | Endpoint Unit | Numeric Readout
O=C(c1ccc(-n2cncn2)c([N+](=O)[O-])c1)N1CCN(S(=O)(=O)c2cccc(F)c2)CC1 | % | -71.9
O=C(NNC(=O)c1ccccc1F)c1ccc(-n2cncn2)c([N+](=O)[O-])c1 | % | 7.74
C=CCN1C(=O)c2ccc(C(=O)N3CCN(S(=O)(=O)c4cccc([N+](=O)[O-])c4)CC3)cc2C1=O | % | -30.4

# input for lookup
# input Fill blank: measured hERG current change (%, negative = inhibition) at 10uM of the molecule O=C(c1ccc(-n2cncn2)c([N+](=O)[O-])c1)N1CCN(S(=O)(=O)c2ccc(Cl)cc2)CC1 is ____.
# output -61.4

Source of measurements: paper PMC4336329
